Hello, the source for this data is patent US20250115558A1, in case you need it.

System: IL-1β release upon NLRP3 activation in peripheral blood mononuclear cells (PBMC)
Run Description: PBMC IC50 Determination Assay
Assay type: cell-based
Condition Info: Homo sapiens; inhibition of IL-1β release; LPS-primed PBMC stimulated with ATP or nigericin
pIC50: −log10 of the molar value.
Value Kind: pIC50

Query for IL-1β release upon NLRP3 activation in peripheral blood mononuclear cells (PBMC): what pIC50 does the record show for Cc1cc(C(F)(F)F)cc(O)c1-c1ccc(CN[C@H]2CCC(=O)N(C)C2)nn1 ?
> 6.30

Query for IL-1β release upon NLRP3 activation in peripheral blood mononuclear cells (PBMC): what pIC50 does the record show for COC1CCC(NCc2ccc(-c3c(C)cc(C(F)(F)F)cc3O)nn2)CC1 (stereo not shown) ?
> 6.30

Query for IL-1β release upon NLRP3 activation in peripheral blood mononuclear cells (PBMC): what pIC50 does the record show for Cc1cc(C(F)(F)F)cc(O)c1-c1ccc(CN2C(=N)N(C)CC2=O)nn1 ?
5.00 to 5.52

Query for IL-1β release upon NLRP3 activation in peripheral blood mononuclear cells (PBMC): what pIC50 does the record show for Cc1cc(C(F)(F)F)cc(O)c1-c1ccc(CNC2CCN(C)CC2)nn1 ?
5.52 to 6.00

Query for IL-1β release upon NLRP3 activation in peripheral blood mononuclear cells (PBMC): what pIC50 does the record show for CCNCc1ccc(-c2c(C)cc(C(F)(F)F)cc2O)nn1 ?
> 6.30

====

Test system: IL-1β release upon NLRP3 activation in peripheral blood mononuclear cells (PBMC)
Run Description: PBMC IC50 Determination Assay
Assay type: cell-based
Condition Info: Homo sapiens; inhibition of IL-1β release; LPS-primed PBMC stimulated with ATP or nigericin
pIC50: −log10 of the molar value.
Entries and their pIC50

Cc1cc(Cl)cc(O)c1-c1ccc(CN2CCCC2=S)nn1 :: > 6.30
Cc1cc(C(F)(F)F)cc(O)c1-c1ccc(CNC2CCN(C)C(=O)C2)nn1 (centres unmarked) :: 6.00 to 6.30
Cc1cc(C(F)(F)F)cc(O)c1-c1ccc(CNCCN2CCOCC2)nn1 :: 5.52 to 6.00
Cc1cc(Br)cc(O)c1-c1ccc(CNC2CCOCC2)nn1 :: > 6.30

Read the next record carefully.
Return reported pIC50; argument: COCCNCc1ccc(-c2c(C)cc(C(F)(F)F)cc2O)nn1
5.52 to 6.00

====

System: IL-1β release upon NLRP3 activation in peripheral blood mononuclear cells (PBMC)
Run Description: PBMC IC50 Determination Assay
Format: cell-based
Condition Info: Homo sapiens; inhibition of IL-1β release; LPS-primed PBMC stimulated with ATP or nigericin
pIC50: −log10 of the molar value. Structures can show the parent of a compound that is named as a salt.
Entries and their pIC50

Cc1cc(-c2ccc(CNC3CCOCC3)nn2)c(O)cc1C(F)(F)F [Compound 15] :: ≤ 5.00
Cc1cc(C(F)(F)F)cc(O)c1-c1ccc(CNC2CCSCC2)nn1 [Compound 136] :: 6.00 to 6.30
Cc1cc(Cl)cc(O)c1-c1ccc(CN[C@@H]2CCOC2)nn1 [Compound 53] :: > 6.30
Cc1cc(C(F)(F)F)cc(O)c1-c1ccc(CN[C@H]2CC(=O)N(C)C2)nn1 [Compound 49] :: > 6.30
Cc1cc(OC(F)(F)F)cc(O)c1-c1ccc(CNC2CCOCC2)nn1 [Compound 30] :: 5.00 to 5.52

Query for IL-1β release upon NLRP3 activation in peripheral blood mononuclear cells (PBMC): what pIC50 does the record show for Cc1cc(C(F)(F)F)cc(O)c1-c1ccc(COC2CCN(C)CC2)nn1 [Compound 45, hydrochloride] ?
5.52 to 6.00

Query for IL-1β release upon NLRP3 activation in peripheral blood mononuclear cells (PBMC): what pIC50 does the record show for Cc1cc(C(F)(F)F)cc(O)c1-c1ccc(CNc2ccn(C)n2)nn1 [Compound 122] ?
> 6.30

Query for IL-1β release upon NLRP3 activation in peripheral blood mononuclear cells (PBMC): what pIC50 does the record show for Cc1cc(C(F)(F)F)cc(O)c1-c1ccc(CN2CCCC2=O)nn1 [Compound 134] ?
> 6.30

====

Tested on: IL-1β release upon NLRP3 activation in peripheral blood mononuclear cells (PBMC)
Run Description: PBMC IC50 Determination Assay
Format: cell-based
Condition Info: Homo sapiens; inhibition of IL-1β release; LPS-primed PBMC stimulated with ATP or nigericin
Protocol: The compounds of the present disclosure were tested for their inhibitory activity against IL-1β release upon NLRP3 activation in peripheral blood mononuclear cells (PBMC). […] The release of IL-1β into the media was determined by a quantitative detection of IL-1β in the media using an IL-1β enzyme-linked immunosorbent assay (ELISA) Ready-SET-Go!, eBioscience cat. […] The release of IL-1β into the media was determined by quantitative detection of IL-1β in the media using HTRF®, CisBio cat. […]
pIC50: −log10 of the molar value.
Value Kind: pIC50

In the examples that follow, each entry is paired with its recorded pIC50.
Cc1cc(CNC2CCOCC2)nnc1-c1c(C)cc(C(F)(F)F)cc1O [Compound 10] :: 5.52 to 6.00
Cc1cc(C(F)(F)F)cc(O)c1-c1ccc(CNc2cnsc2)nn1 [Compound 150] :: > 6.30
Cc1cc(C(F)(F)F)cc(O)c1-c1ccc(CN[C@H]2CCOC2)nn1 [Compound 33] :: > 6.30
Cc1cc(C(F)(F)F)cc(O)c1-c1ccc(CN2CCN(C)CC2)nn1 [Compound 131] :: 5.52 to 6.00
Cc1cc(C(F)(F)F)cc(O)c1-c1ccc(CNCc2cnccn2)nn1 [Compound 92] :: 5.52 to 6.00

Return reported pIC50; argument: Cc1cc(C(F)(F)F)cc(O)c1-c1ccc(COC2CCOCC2)nn1 [Compound 17]
5.00 to 5.52

====

Tested on: IL-1β release upon NLRP3 activation in peripheral blood mononuclear cells (PBMC)
Run Description: PBMC IC50 Determination Assay
Assay type: cell-based
Condition Info: Homo sapiens; inhibition of IL-1β release; LPS-primed PBMC stimulated with ATP or nigericin
Method: The compounds of the present disclosure were tested for their inhibitory activity against IL-1β release upon NLRP3 activation in peripheral blood mononuclear cells (PBMC). […] The release of IL-1β into the media was determined by a quantitative detection of IL-1β in the media using an IL-1β enzyme-linked immunosorbent assay (ELISA) Ready-SET-Go!, eBioscience cat. […] The release of IL-1β into the media was determined by quantitative detection of IL-1β in the media using HTRF®, CisBio cat. […]
pIC50: −log10 of the molar value. Where a name gives a salt, the structure may show the parent alone.
Entries and their pIC50

In the examples that follow, each entry is paired with its recorded pIC50.
Cc1cc(F)cc(O)c1-c1ccc(CNC2CCOCC2)nn1 :: 5.00 to 5.52
Cc1cc(C(F)(F)F)cc(O)c1-c1ccc(C(C)(C)N2CCCC2=O)nn1 :: 5.52 to 6.00

Return reported pIC50; argument: CNCc1ccc(-c2c(C)cc(C(F)(F)F)cc2O)nn1
5.52 to 6.00

Return reported pIC50; argument: Cc1cc(C(F)(F)F)cc(O)c1-c1ccc(CNc2ccnn2C)nn1
6.00 to 6.30

Return reported pIC50; argument: Cc1cc(C(F)(F)F)cc(O)c1-c1ccc(CN2C(=O)CCC2(C)C)nn1
5.52 to 6.00

Return reported pIC50; argument: Cc1cc(C(F)(F)F)cc(O)c1-c1ccc(CNC2CN3CCC2CC3)nn1 (centres unmarked)
≤ 5.00

Return reported pIC50; argument: Cc1cc(C(F)(F)F)cc(O)c1-c1ccc(CNC2CCCC2)nn1
> 6.30

Return reported pIC50; argument: Cc1cc(C(F)(F)F)cc(O)c1-c1ccc(CNc2cncnc2)nn1
6.00 to 6.30

Return reported pIC50; argument: Cc1cc(OC(F)F)cc(O)c1-c1ccc(CNC2CCOCC2)nn1
5.52 to 6.00

Return reported pIC50; argument: Cc1cc(C(F)(F)F)cc(O)c1-c1ccc(CNc2nccn2C)nn1 [Compound 82, hydrochloride]
6.00 to 6.30

====

System: IL-1β release upon NLRP3 activation in peripheral blood mononuclear cells (PBMC)
Run Description: PBMC IC50 Determination Assay
Type: cell-based
Condition Info: Homo sapiens; inhibition of IL-1β release; LPS-primed PBMC stimulated with ATP or nigericin
Value Kind: IC50

Cc1cc(C(F)(F)F)cc(O)c1-c1ccc(CN(C)C)nn1 [Compound 94] :: 1 to 3 µM
Cc1cc(C(F)(F)F)cc(O)c1-c1ccc(CN2CCN(C)C(=O)C2)nn1 [Compound 132] :: 1 to 3 µM
Cc1cc(C(F)(F)F)cc(O)c1-c1ccc(CNCc2ccccc2)nn1 [Compound 138] :: 0.5 to 1 µM
Oc1cc(C(F)(F)F)ccc1-c1ccc(CNC2CCOCC2)nn1 [Compound 13] :: 3 to 10 µM
Cc1cc(Cl)cc(O)c1-c1ccc(CO[C@@H]2CCOC2)nn1 [Compound 63] :: < 0.5 µM

Return reported IC50; argument: Cc1cc(C(F)(F)F)cc(O)c1-c1ccc(Cn2ccccc2=N)nn1 [Compound 119]
0.5 to 1 µM

Return reported IC50; argument: CO[C@@H]1CCN(Cc2ccc(-c3c(C)cc(C(F)(F)F)cc3O)nn2)C1 [Compound 39]
0.5 to 1 µM
